- System: HL-60
- Protocol Notes: cell viability (% survival relative to DMSO control); higher = less cytotoxic
- Experimental Setup: 10 µM; 72 h; co-treatment: DMSO vehicle
Kindly state cell viability for each of the entries shown.
Answers are plain numbers, in %.

Solved cases (5 shown):
>  <Compound>
CC[C@H](C)[C@H](N)C(=O)N1CCSC1

>  <cell viability / %>
97.8

$$$$
>  <Compound>
Cc1ccc(-c2cc(C(F)(F)F)nn2-c2ccc(S(N)(=O)=O)cc2)cc1

>  <cell viability / %>
111

$$$$
>  <Compound>
CN(CCCOc1ccc(Cc2ccccc2)cc1)CCC(=O)O

>  <cell viability / %>
98.6

$$$$
>  <Compound>
O=C(O)CC[N+](=O)[O-]

>  <cell viability / %>
101

$$$$
>  <Compound>
CCc1c(C(=O)C(N)=O)c2c(OCC(=O)O)cccc2n1Cc1ccccc1

>  <cell viability / %>
98.1

$$$$

For each of the items listed, what is its cell viability?
1. CCOC(=O)c1ccc(-c2ccc(OC(=O)N(C)Cc3cccc(-c4ccncc4)c3)cc2)cc1
2. CC(C)CC(=O)N[C@H](C(=O)N[C@H](C(=O)N[C@@H](CC(C)C)[C@@H](O)CC(=O)N[C@@H](C)C(=O)N[C@@H](CC(C)C)[C@@H](O)CC(=O)O)C(C)C)C(C)C
3. COC(=O)c1cc2c(C(F)(F)F)cc(-c3ccccc3)cc2n1O
4. O=c1cc(-c2ccccc2)oc2c1ccc1ccccc12
5. N#Cc1ccc(N(Cc2ccc(Br)cc2)n2cnnc2)cc1
6. O=C([O-])CC(O)(C(=O)[O-])C(O)C(=O)[O-].[K+].[K+].[K+] (centres undefined) [Hydroxycitrate]

102
99.6
111
101
104
92.4

For each of the items listed, what is its cell viability?
1. Cc1cc2c(C(C)C)c(O)c(O)c(C=O)c2c(O)c1-c1c(C)cc2c(C(C)C)c(O)c(O)c(C=O)c2c1O
2. CCn1c(=Cc2cccc[n+]2CC)sc(=C2Sc3ccccc3N2C)c1=O
3. CCc1oc2ccccc2c1C(=O)c1cc(Br)c(O)c(Br)c1

1. 2.19
2. 106
3. 101
